experiment: Cytotoxicity against human HEK293 cells assessed as reduction in cell viability incubated for 24 hrs by resazurin dye based fluorescence assay
recorded endpoint: CC50 at 24 h

Q: If you can, please state the reported CC50 at 24 h value of O=C(c1cc2cc(Br)ccc2o1)N1CCc2c([nH]c3ccccc23)[C@H]1c1ccc(Cl)cc1 .
A: > 50 µM

----------
test: Partition coefficient, logD between 1-octanol and pH 7.4 PBS by LC-MS analysis; type: physicochemical; details: 1-octanol/PBS
recorded endpoint: logD

Q: If you can, please state the reported logD value of O=C(c1cc2cc(Br)ccc2o1)N1CCc2c([nH]c3ccccc23)[C@H]1c1ccc(Cl)cc1 .
A: > 5

The measurements presented in this section are drawn from ChEMBL document CHEMBL5036373.
